- measured target: CDK4/cyclin D3 (Homo sapiens, UniProt P11802)
- Construct: purchased Carna Biosciences, Inc. QS S Assist CDK4/Cyclin D3_FP Kit
- Sequence (P11802 whole entry): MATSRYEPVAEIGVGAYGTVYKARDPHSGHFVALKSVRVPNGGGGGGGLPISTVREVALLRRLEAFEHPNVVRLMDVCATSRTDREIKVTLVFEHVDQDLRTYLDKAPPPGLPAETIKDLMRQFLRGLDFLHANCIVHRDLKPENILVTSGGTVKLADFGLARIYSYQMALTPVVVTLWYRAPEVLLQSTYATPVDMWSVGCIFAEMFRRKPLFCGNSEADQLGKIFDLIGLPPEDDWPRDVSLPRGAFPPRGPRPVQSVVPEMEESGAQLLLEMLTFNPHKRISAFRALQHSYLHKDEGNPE
- Sequence (P30281 whole entry partner): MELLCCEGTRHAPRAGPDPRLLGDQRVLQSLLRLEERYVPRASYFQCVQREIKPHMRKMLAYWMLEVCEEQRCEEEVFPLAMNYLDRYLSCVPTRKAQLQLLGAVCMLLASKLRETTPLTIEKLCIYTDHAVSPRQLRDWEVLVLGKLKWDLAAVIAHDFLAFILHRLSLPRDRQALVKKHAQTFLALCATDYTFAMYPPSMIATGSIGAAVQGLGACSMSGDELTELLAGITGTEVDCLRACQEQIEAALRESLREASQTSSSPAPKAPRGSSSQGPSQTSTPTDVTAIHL
- experiment: Human CDK4/cyclin D3 inhibitory activity (QS S Assist CDK4/Cyclin D3_FP Kit, IMAP fluorescence polarization)
- Format: biochemical
- details: 50% inhibitory concentration against CDK4/cyclin D3, given as class symbol
pIC50: −log10 of the molar value.
Entries and their measured pIC50 follow.
value type: pIC50

smiles structure: CC(C)CNc1nc([C@@H](C)O)cc2cnc(Nc3ccc(N4CCNCC4=O)cn3)nc12
measured target: CDK4/cyclin D3 (Homo sapiens, UniProt P11802)
val: > 8.00
//
smiles structure: CC(C)Nc1nc([C@@H](C)O)cc2cnc(Nc3ccc4c(n3)CCN(CCO)C4)nc12
measured target: CDK4/cyclin D3 (Homo sapiens, UniProt P11802)
val: > 8.00
//
smiles structure: CCCNc1nc(C(F)F)cc2cnc(Nc3ccc(CN4CCC(C(=O)O)CC4)cn3)nc12
measured target: CDK4/cyclin D3 (Homo sapiens, UniProt P11802)
val: 7.00 to 8.00
//
smiles structure: CCCNc1nc([C@@H](C)OC)cc2cnc(Nc3ccc(N4C[C@H]5C[C@@H]4CN5)nn3)nc12
measured target: CDK4/cyclin D3 (Homo sapiens, UniProt P11802)
val: > 8.00

====

The entries below come with measured pIC50 values attached.
- measured target: CDK4/cyclin D3 (Homo sapiens, UniProt P11802)
- Construct: purchased Carna Biosciences, Inc. QS S Assist CDK4/Cyclin D3_FP Kit
- experiment: Human CDK4/cyclin D3 inhibitory activity (QS S Assist CDK4/Cyclin D3_FP Kit, IMAP fluorescence polarization)
- Assay type: biochemical
- details: Human CDK4/cyclin D3 inhibitory activity; read-out: CDK4 Activity symbol
pIC50: −log10 of the molar value.

molecule: CC(C)Nc1nc([C@@H](C)O)cc2cnc(Nc3ccc(CN4CCNC(C)(C)C4)cn3)nc12 [Compound 536]
pIC50: > 8.00
--
molecule: C[C@@H](O)c1cc2cnc(Nc3ccc(N4CCN(C=O)CC4=O)cn3)nc2c(N[C@H]2CCCOC2)n1 [Compound 352]
pIC50: > 8.00
--
molecule: COC(C)c1cc2cnc(Nc3ccc(CN4CCNCC4)cn3)nc2c(N[C@H]2CC[C@@](C)(C(=O)O)CC2)n1 (stereo partly shown) [Compound 437]
pIC50: ≤ 7.00
--
molecule: C[C@@H](O)c1nc(N[C@H]2CCCOC2)c2nc(Nc3ccc(N4CCNCC4)nn3)ncc2c1Cl [Compound 367]
pIC50: > 8.00
--
molecule: CC(C)Nc1nc(C(F)F)cc2cnc(Nc3ccc(NC(=O)C(N)=O)cn3)nc12 [Compound 97]
pIC50: 7.00 to 8.00
--
molecule: CC(O)c1cc2cnc(Nc3ccc(N4CCNCC4)cn3)nc2c(NC(C)C(F)(F)F)n1 (stereo not shown) [Compound 54]
pIC50: > 8.00
--
molecule: CC(C)Nc1nc(C(F)F)cc2cnc(Nc3ccc(CC(=O)O)cn3)nc12 [Compound 133]
pIC50: 7.00 to 8.00
--
molecule: Cc1cccc(Nc2ncc3cc(C(F)F)nc(NC(C)C)c3n2)n1 [Compound 104]
pIC50: 7.00 to 8.00
--
molecule: CC(C)Nc1nc(C(F)F)cc2cnc(Nc3ccc(O[C@H]4CC[C@@H](O)CC4)cn3)nc12 [Compound 119]
pIC50: 7.00 to 8.00
--
molecule: COCC(C)(C)Nc1nc([C@@H](C)O)cc2cnc(Nc3cnc(N4CCNCC4)cn3)nc12 [Compound 373]
pIC50: > 8.00
--
molecule: COCC(C)(C)Nc1nc([C@@H](C)O)cc2cnc(Nc3ccc(C(C)N4CCNCC4)cn3)nc12 (stereo partly shown) [Compound 265]
pIC50: > 8.00
--
molecule: CO[C@H](C)c1cc2cnc(Nc3ncc(N4CCNCC4)cn3)nc2c(NC(C)C)n1 [Compound 374]
pIC50: 7.00 to 8.00
--
molecule: CC(C)Nc1nc(C(F)F)cc2cnc(Nc3ccc(N4CCC(C(C)(C)O)CC4)nn3)nc12 [Compound 191]
pIC50: > 8.00
--
molecule: COC(C)c1cc2cnc(Nc3ccc(CN4CCNCC4)cn3)nc2c(NC2CCCN(C(C)=O)C2)n1 (stereo not shown) [Compound 405]
pIC50: 7.00 to 8.00
--
molecule: CC(C)Nc1nc(C(F)F)cc2cnc(Nc3ccc(CN4CCN(S(=O)(=O)N(C)C)CC4)cn3)nc12 [Compound 114]
pIC50: 7.00 to 8.00
--
molecule: COC(C)c1cc2cnc(Nc3ccc(CN4CCNCC4)cn3)nc2c(NC2CNC(=O)C2)n1 (stereo not shown) [Compound 419]
pIC50: 7.00 to 8.00
